Subject Of Test: TBK1 (Homo sapiens (Human), UniProt Q9UHD2)
Sequence (Q9UHD2 whole entry): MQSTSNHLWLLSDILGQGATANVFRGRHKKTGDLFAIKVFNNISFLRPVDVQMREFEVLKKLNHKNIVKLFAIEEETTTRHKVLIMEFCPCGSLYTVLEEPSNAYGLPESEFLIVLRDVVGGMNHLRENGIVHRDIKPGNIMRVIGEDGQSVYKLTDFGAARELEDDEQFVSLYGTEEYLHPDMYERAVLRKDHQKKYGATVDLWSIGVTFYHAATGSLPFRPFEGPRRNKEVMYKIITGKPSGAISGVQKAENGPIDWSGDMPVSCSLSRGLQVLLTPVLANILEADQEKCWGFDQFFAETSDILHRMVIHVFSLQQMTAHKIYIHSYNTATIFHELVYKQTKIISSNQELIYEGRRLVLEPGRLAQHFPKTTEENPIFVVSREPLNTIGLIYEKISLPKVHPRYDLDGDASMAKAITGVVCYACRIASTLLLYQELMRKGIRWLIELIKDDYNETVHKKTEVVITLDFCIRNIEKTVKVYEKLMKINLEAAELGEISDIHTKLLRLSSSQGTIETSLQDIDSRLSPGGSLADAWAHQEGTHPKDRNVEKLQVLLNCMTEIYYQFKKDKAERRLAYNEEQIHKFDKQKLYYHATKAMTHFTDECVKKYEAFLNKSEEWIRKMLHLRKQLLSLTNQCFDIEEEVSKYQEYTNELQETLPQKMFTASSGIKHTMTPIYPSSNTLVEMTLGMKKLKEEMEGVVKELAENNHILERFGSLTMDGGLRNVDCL
Run Description: TBK1 low ATP kinase assay (in vitro assay 1)
Format: biochemical
Stated Conditions: in vitro assay 1, read-out: TBK1 low ATP kinase assay IC50
Value Kind: log10(IC50) (log10 of the value in nM)
// do not treat as linear: log10 of IC50, unit nM

Please give the measured log10(IC50) for this compound: CC(c1ccnc(Nc2nc3ccc(-c4cc(N5CCCC5)ncn4)cc3[nH]2)c1)N1CCN(C(=O)C2(C(F)(F)F)CC2)CC1 (single isomer, unassigned)
-0.09

Please give the measured log10(IC50) for this compound: CC(C)N(C)c1cc(-c2ccc3nc(Nc4cc(CN5CCN(C(=O)OC(C)(C)C)CC5)ccn4)[nH]c3c2)ncn1
1.15

Please give the measured log10(IC50) for this compound: CC(c1ccnc(Nc2nc3ccc(-c4ccnn4C(C)C)cc3[nH]2)c1)N1CCN(C(=O)OC(C)(C)C)CC1 (single isomer, unassigned)
2.90

Please give the measured log10(IC50) for this compound: COc1c(NC2CC2)ncnc1-c1ccc2nc(Nc3cc(CN4CCN(C(=O)CC(F)(F)F)CC4)ccn3)[nH]c2c1
0.91

Please give the measured log10(IC50) for this compound: COc1cnccc1-c1ccc2nc(Nc3cc(CN4CCN(C(=O)C(C)(C)O)CC4)ccn3)[nH]c2c1
1.45

---

Subject Of Test: TBK1 (Homo sapiens (Human), UniProt Q9UHD2)
Run Description: TBK1 low ATP kinase assay (in vitro assay 1)
Assay type: biochemical
Stated Conditions: in vitro assay 1, read-out: TBK1 low ATP kinase assay IC50
Answer each item with its documented pIC50.
Worth noting: pIC50 values are minus log10 of concentrations stated in mol/L.

Please give the measured pIC50 for this compound: Cc1nccc(-c2ccc3nc(Nc4cc(CN5CCN(C(=O)C6CC6)CC5)ccn4)[nH]c3c2)n1
7.36

Please give the measured pIC50 for this compound: COc1cnccc1-c1ccc2nc(Nc3cc(CN4CCN(C(=O)CC(F)(F)F)CC4)ccn3)[nH]c2c1OCC(C)C
6.30

Please give the measured pIC50 for this compound: CC(c1ccnc(Nc2nc3ccc(-c4cnn(CC5CC5(F)F)c4)cc3[nH]2)c1)N1CCN(C(=O)CC(F)(F)F)CC1 (single isomer, unassigned) [Example 55.02.01]
9.14

Please give the measured pIC50 for this compound: COc1cncnc1-c1ccc2nc(Nc3cc(C(C)N4CCN(C(=O)CC5CC5)CC4)ccn3)[nH]c2c1 (single isomer, unassigned) [Example 35.03.02.A]
8.08

---

Subject Of Test: TBK1 (Homo sapiens (Human))
Run Description: TBK1 low ATP kinase assay (in vitro assay 1)
Format: biochemical
Stated Conditions: in vitro assay 1, read-out: TBK1 low ATP kinase assay IC50
Value Kind: IC50

Please tell me: IC50 of CC(C)(C)OC(=O)N1CCN(Cc2ccnc(Nc3nc4ccc(-c5cc(N6CCCCC6)ncn5)cc4[nH]3)c2)CC1 [Example 145.01] , system TBK1 (Homo sapiens (Human))?
13 nM

Please tell me: IC50 of CCc1cc(-c2ccc3nc(Nc4cc(CN5CCN(C(=O)C6CC6)CC5)ccn4)[nH]c3c2)ncn1 [Example 91.03] , system TBK1 (Homo sapiens (Human))?
13 nM

Please tell me: IC50 of CN(CC1CC1)c1cc(-c2ccc3nc(Nc4cc(CN5CCN(C(=O)C6CC6)CC5)ccn4)[nH]c3c2)ncn1 [Example 141.03] , system TBK1 (Homo sapiens (Human))?
13 nM
